Reported MIC values follow for various compounds
- Tested on: S. aureus
- test.name: Serial passaging, MIC of adapted strains
- Type: cell-based
- measurement.setup: Staphylococcus aureus, 1199 adapted to 4 x MIC of Compound 7
Reply with just the number (in µg/mL).

compound	observed.measurement
Cc1cc(C)nc(N[C@@H]2CCN(c3c(F)cc4c(=O)c(C(=O)O)cn5c4c3OC[C@@H]5C)C2)n1	0.03
C[C@H]1COc2c(N3CC[C@@H](Nc4ncccn4)C3)c(F)cc3c(=O)c(C(=O)O)cn1c23	0.015

// fetch MIC for C[C@H]1COc2c(N3CCN(C)CC3)c(F)cc3c(=O)c(C(=O)O)cn1c23 [Levofloxacin, reference compound] ; system: S. aureus
1

====

- Test system: Acinetobacter baumannii
- test.name: MIC (microbroth dilution)
- Type: cell-based
- measurement.setup: Acinetobacter baumannii, NCTC10303, NCTC 10303; read-out: MIC
Reported MIC values follow for various compounds

Field: example entries. Status: answers known.
compound	assay.target	MIC
O=C(O)c1cn(C2CC2)c2cc(N3CCNCC3)c(F)cc2c1=O [Ciprofloxacin, ciprofloxacin, reference compound]	Acinetobacter baumannii	0.5 µg/mL
C[C@H]1COc2c(N3CCN(C)CC3)c(F)cc3c(=O)c(C(=O)O)cn1c23 [Levofloxacin, reference compound]	Acinetobacter baumannii	0.125 µg/mL
Cc1cc(C)nc(N[C@@H]2CCN(c3c(F)cc4c(=O)c(C(=O)O)cn5c4c3OC[C@@H]5C)C2)n1	Acinetobacter baumannii	0.125 µg/mL
C[C@H]1COc2c(N3CC[C@@H](Nc4ncccn4)C3)c(F)cc3c(=O)c(C(=O)O)cn1c23	Acinetobacter baumannii	≤ 0.06 µg/mL

Continue with the next compound.
Supply measured MIC of `COc1c(N2CC[C@@H](Nc3ncccn3)C2)c(F)cc2c(=O)c(C(=O)O)cn(C3CC3)c12` in your reply.
0.06 µg/mL

====

Reported MIC values follow for various compounds
- Tested on: Acinetobacter baumannii
- test.name: MIC (microbroth dilution)
- Type: cell-based
- measurement.setup: Acinetobacter baumannii, UKA13, oxa23; read-out: MIC
Reply with just the number (in µg/mL).

compound	readout.units	MIC
Cc1cc(C)nc(N[C@@H]2CCN(c3c(F)cc4c(=O)c(C(=O)O)cn5c4c3OC[C@@H]5C)C2)n1 [Compound 50]	µg/mL	4
C[C@H]1COc2c(N3CCN(C)CC3)c(F)cc3c(=O)c(C(=O)O)cn1c23 [Levofloxacin, reference compound]	µg/mL	16

Supply measured MIC of COc1c(N2CC[C@@H](Nc3ncccn3)C2)c(F)cc2c(=O)c(C(=O)O)cn(C3CC3)c12 [Compound 51] in your reply.
2

Supply measured MIC of C[C@H]1COc2c(N3CC[C@@H](Nc4ncccn4)C3)c(F)cc3c(=O)c(C(=O)O)cn1c23 [Compound 46] in your reply.
2

====

Reported MIC values follow for various compounds
- Tested on: Acinetobacter baumannii
- test.name: MIC (microbroth dilution)
- Type: cell-based
- measurement.setup: Acinetobacter baumannii, W1; read-out: MIC
- Procedure: All bacteria were maintained on tryptic soy agar (TSA), except Streptococcus spp., which were maintained on Columbia agar plates containing 5% horse blood. […] MICs were measured by the microbroth dilution method. […] Absorbance at OD600 was read on a CLARIOstar spectrophotometer (BMG Labtech) and the MIC was defined as the minimum concentration of compound where no visible growth was detected. […] The MICs were read and defined as above. […]
Reply with just the number (in µg/mL).

Field: example entries. Status: answers known.
compound	observed.measurement
COc1c(N2CC[C@@H](Nc3ncccn3)C2)c(F)cc2c(=O)c(C(=O)O)cn(C3CC3)c12 [Compound 51]	4
C[C@H]1COc2c(N3CCN(C)CC3)c(F)cc3c(=O)c(C(=O)O)cn1c23 [Levofloxacin, reference compound]	8
O=C(O)c1cn(C2CC2)c2cc(N3CCNCC3)c(F)cc2c1=O [Ciprofloxacin, ciprofloxacin, reference compound]	128

// fetch MIC for Cc1cc(C)nc(N[C@@H]2CCN(c3c(F)cc4c(=O)c(C(=O)O)cn5c4c3OC[C@@H]5C)C2)n1 [Compound 50] ; system: Acinetobacter baumannii
8

// fetch MIC for C[C@H]1COc2c(N3CC[C@@H](Nc4ncccn4)C3)c(F)cc3c(=O)c(C(=O)O)cn1c23 [Compound 46] ; system: Acinetobacter baumannii
4

====

- test.name: Pharmacokinetics
- measurement.setup: male, ICR (CD-1), mouse, plasma, po, 20 mg/kg
- Experimental: Pharmacokinetic studies were performed in male ICR (CD-1) mice obtained from Charles River, UK. […] Blood samples were collected from the caudal vein into anticoagulant-treated capillaries at predetermined time points up to 8 h, with terminal cardiac puncture at 8 h. Plasma samples were stored at −80 °C until analysis. […] A compound-specific LC-MS/MS method was developed for each test article using matrix-matched calibrators following protein precipitation of samples.
assay.endpoint: Tmax (min)
Reply with just the number (in min).

Supply measured Tmax of `Cc1cc(C)nc(N[C@@H]2CCN(c3c(F)cc4c(=O)c(C(=O)O)cn5c4c3OC[C@@H]5C)C2)n1` in your reply.
30

====

- test.name: Pharmacokinetics
- measurement.setup: male, ICR (CD-1), mouse, in vivo, po, 20 mg/kg
Reported half-life values follow for various molecules

molecule	half-life
C[C@H]1COc2c(N3CC[C@@H](Nc4ncccn4)C3)c(F)cc3c(=O)c(C(=O)O)cn1c23 [Compound 46]	5.1 h

Supply measured half-life of C[C@H]1COc2c(N3CCN(C)CC3)c(F)cc3c(=O)c(C(=O)O)cn1c23 [Levofloxacin, reference compound] in your reply.
5.7 h

====

- System: S. aureus
- test.name: MIC (microbroth dilution)
- Assay type: cell-based, Staphylococcus aureus
- measurement.setup: Staphylococcus aureus, SA-1199; read-out: MIC
Reported MIC values follow for various compounds
Reply with just the number (in µg/mL).

Field: example entries. Status: answers known.
compound	readout.units	MIC
O=C(O)c1cn(C2CC2)c2cc(N3CCN(Cc4cccc5cccnc45)CC3)c(F)cc2c1=O	µg/mL	0.125
C[C@H]1COc2c(N3CCN(c4ncccn4)CC3)c(F)cc3c(=O)c(C(=O)O)cn1c23	µg/mL	0.06
C[C@H]1COc2c(N3CCC(Nc4ncccn4)C3)c(F)cc3c(=O)c(C(=O)O)cn1c23 (stereo partly shown)	µg/mL	0.016

Supply measured MIC of `O=C(O)c1cn(C2CC2)c2cc(N3CCN[C@@H](Cc4cccc5ccccc45)C3)c(F)cc2c1=O` in your reply.
2

====

- Tested on: E. coli
- test.name: MIC (microbroth dilution)
- Assay type: cell-based
- measurement.setup: Escherichia coli, NCTC10418, NCTC 10418
Reported MIC values follow for various compounds
Reply with just the number (in µg/mL).

record.smiles	assay.endpoint	observed.measurement
COc1c(N2CC[C@@H](Nc3ncccn3)C2)c(F)cc2c(=O)c(C(=O)O)cn(C3CC3)c12	MIC	0.125

Supply measured MIC of `Cc1cc(C)nc(N[C@@H]2CCN(c3c(F)cc4c(=O)c(C(=O)O)cn5c4c3OC[C@@H]5C)C2)n1` in your reply.
0.125

====

- Test system: S. aureus
- test.name: Serial passaging, MIC of adapted strains
- Assay type: cell-based
- measurement.setup: Staphylococcus aureus, 1199B adapted to 4 x MIC of Compound 7
assay.endpoint: MIC

Field: example entries. Status: answers known.
compound	assay.endpoint	observed.measurement
COc1c(N2CC[C@@H](Nc3ncccn3)C2)c(F)cc2c(=O)c(C(=O)O)cn(C3CC3)c12	MIC	0.008 µg/mL
C[C@H]1COc2c(N3CCN(C)CC3)c(F)cc3c(=O)c(C(=O)O)cn1c23 [Levofloxacin, reference compound]	MIC	4 µg/mL
Cc1cc(C)nc(N[C@@H]2CCN(c3c(F)cc4c(=O)c(C(=O)O)cn5c4c3OC[C@@H]5C)C2)n1	MIC	≤ 0.015 µg/mL

Supply measured MIC of `C[C@H]1COc2c(N3CC[C@@H](Nc4ncccn4)C3)c(F)cc3c(=O)c(C(=O)O)cn1c23` in your reply.
0.03 µg/mL

====

Reported MIC values follow for various compounds
- System: S. aureus
- test.name: MIC (microbroth dilution)
- Format: cell-based, Staphylococcus aureus
- measurement.setup: Staphylococcus aureus, SA-1199; read-out: MIC
Reply with just the number (in µg/mL).

CN(C)c1ccc(CN2CCN(c3cc4c(cc3F)c(=O)c(C(=O)O)cn4C3CC3)CC2)cc1 0.125
COc1c(N2CC[C@@H](Nc3ncccn3)C2)c(F)cc2c(=O)c(C(=O)O)cn(C3CC3)c12 0.004
Cc1cc(N[C@@H]2CCN(c3c(F)cc4c(=O)c(C(=O)O)cn5c4c3OC[C@@H]5C)C2)ncn1 0.016

Continue with the next compound.
Supply measured MIC of `C[C@H]1COc2c(N3CC[C@H](Nc4ncccn4)C3)c(F)cc3c(=O)c(C(=O)O)cn1c23` in your reply.
0.25
